Test system: quinolone-resistant Haemophilus influenzae strains
Assay: Microdilution MIC determination in HTM for quinolone-resistant Haemophilus influenzae strains
Type: cell-based
Conditions: strain 8; mutations S84-R, D420-N, S84-L A117-E, None
Catalogue of MIC values
Give your result in µg/mL as a bare value.

C[C@H]1COc2c(N3CCN(C)CC3)c(F)cc3c(=O)c(C(=O)O)cn1c23; 2
N[C@@H]1[C@H]2CN(c3nc4c(cc3F)c(=O)c(C(=O)O)cn4-c3ccc(F)cc3F)C[C@@H]12; 4
Cc1c(F)c(N2CCNC(C)C2)cc2c1c(=O)c(C(=O)O)cn2C1CC1 (centres unmarked); 1
CO/N=C1\CN(c2nc3c(cc2F)c(=O)c(C(=O)O)cn3C2CC2)CC1CN (centres unmarked); 0.5

Need MIC of C[C@@H]1CN(c2c(F)c(N)c3c(=O)c(C(=O)O)cn(C4CC4)c3c2F)C[C@H](C)N1 , thanks.
1

---

Listed next: entries and their corresponding MIC Range.
Test system: quinolone-resistant Haemophilus influenzae strains
Assay: Microdilution MIC determination in HTM for quinolone-resistant Haemophilus influenzae strains
Format: cell-based
Conditions: 9 quinolone-resistant Haemophilus influenzae strains

Some entries whose results are on file:
Cc1c(F)c(N2CCNC(C)C2)cc2c1c(=O)c(C(=O)O)cn2C1CC1 (stereo not drawn); 0.25 to 4.0 µg/mL
C[C@H]1COc2c(N3CCN(C)CC3)c(F)cc3c(=O)c(C(=O)O)cn1c23; 0.25 to 4.0 µg/mL
O=C(O)c1cn(C2CC2)c2cc(N3CCNCC3)c(F)cc2c1=O; 0.25 to 8.0 µg/mL

Item: N[C@@H]1[C@H]2CN(c3nc4c(cc3F)c(=O)c(C(=O)O)cn4-c3ccc(F)cc3F)C[C@@H]12 Test system: quinolone-resistant Haemophilus influenzae strains Read-out: MIC Range Value: ?
0.25 to 8.0 µg/mL

Hi! What's the reported MIC Range for CO/N=C1\CN(c2nc3c(cc2F)c(=O)c(C(=O)O)cn3C2CC2)CC1CN (racemic) on quinolone-resistant Haemophilus influenzae strains?
0.03 to 1.0 µg/mL

Short answer please: MIC Range, quinolone-resistant Haemophilus influenzae strains, entry C[C@@H]1CN(c2c(F)c(N)c3c(=O)c(C(=O)O)cn(C4CC4)c3c2F)C[C@H](C)N1
0.25 to 8.0 µg/mL

---

Tested on: quinolone susceptible pneumococci (ciprofloxacin MICs ≦4.0 μg/ml)
Experiment: Agar dilution MICs of 207 quinolone susceptible pneumococcal strains
Assay type: cell-based, Streptococcus pneumoniae
Details: Streptococcus pneumoniae, agar dilution; Penicillin S strains; read-out: MIC90
Recorded endpoint: MIC90 (µg/mL)
Report only the number, with the unit µg/mL understood.

Below, 3 molecules whose answers are already recorded.
Cc1c(F)c(N2CCNC(C)C2)cc2c1c(=O)c(C(=O)O)cn2C1CC1 (stereo not shown) [Grepafloxacin, grepafloxacin]; 0.5
N[C@@H]1[C@H]2CN(c3nc4c(cc3F)c(=O)c(C(=O)O)cn4-c3ccc(F)cc3F)C[C@@H]12 [Trovafloxacin, trovafloxacin]; 0.25
C[C@H]1COc2c(N3CCN(C)CC3)c(F)cc3c(=O)c(C(=O)O)cn1c23 [Levofloxacin, levofloxacin]; 2

Now for the molecule whose MIC90 we want.
For CC[C@H]1OC(=O)[C@H](C)[C@@H](O[C@H]2C[C@@](C)(OC)[C@@H](O)[C@H](C)O2)[C@H](C)[C@@H](O[C@@H]2O[C@H](C)C[C@H](N(C)C)[C@H]2O)[C@](C)(O)C[C@@H](C)CN(C)[C@H](C)[C@@H](O)[C@]1(C)O [Azithromycin, azithromycin] , what is its reported MIC90?
0.5
